Experiment: NeuroPK parameters by Combinatory Mapping Approach
Format: in vivo
Conditions: rat, brain slices (Vu,brain) and brain homogenate (fu,brain); Equation (5), Vu,brain·fu,brain; read-out: Unbound intracellular-to-extracellular (interstitial) concentration ratio, Kp,uu,cell
measurement kind: Kp uu

[O-][S@@+](Cc1cncs1)C(c1ccccc1)c1ccccc1 : 0.18

# context switch: different molecule, same Kp uu
get_value(item= NC(=O)C[S@@+]([O-])C(c1ccccc1)c1ccccc1 [R-modafinil, reference compound] , readout=Kp uu) returns 0.85

---

Biological target: CYP2D6 (Homo sapiens)
Construct: from tissue; host or cells: human liver microsomes (HLMs)
Sequence (P10635 whole entry): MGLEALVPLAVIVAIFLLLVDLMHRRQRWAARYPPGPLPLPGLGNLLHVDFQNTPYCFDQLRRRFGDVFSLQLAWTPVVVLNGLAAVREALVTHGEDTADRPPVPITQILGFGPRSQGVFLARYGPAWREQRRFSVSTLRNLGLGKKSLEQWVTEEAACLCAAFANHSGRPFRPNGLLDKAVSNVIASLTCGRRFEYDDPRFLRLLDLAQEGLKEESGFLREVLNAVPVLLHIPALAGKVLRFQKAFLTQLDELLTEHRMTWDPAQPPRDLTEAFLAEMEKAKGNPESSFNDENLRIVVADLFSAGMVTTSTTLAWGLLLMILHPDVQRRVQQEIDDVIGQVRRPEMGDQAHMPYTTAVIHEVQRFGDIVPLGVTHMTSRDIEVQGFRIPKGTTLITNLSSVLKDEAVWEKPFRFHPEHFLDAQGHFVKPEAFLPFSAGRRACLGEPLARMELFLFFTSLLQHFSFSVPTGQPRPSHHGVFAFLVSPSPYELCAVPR
Assay: CYP P450 inhibition in HLMs (Eurofins Panlabs)
Format: in vitro ADME
Conditions: microsomes, S-CE-123 10 µM, range given for CYP2C9, CYP1A and CYP2D6 together, read-out: inhibition of control values
measurement kind: inhibition at 10 min, 10 µM

get_value(item= [O-][S@@+](Cc1cncs1)C(c1ccccc1)c1ccccc1 [S-CE-123] , readout=inhibition at 10 min, 10 µM) returns 47 to 68%

Origin of the recorded values: paper PMC10707468
